- System under test: human carbonic anhydrase 9 (CAIX) (human, UniProt Q16790 38-459)
- Assay remarks: FACS competition on HT-29 cells against tracer 3BP-2776; pIC50 category A = pIC50 >8.0
- Procedure: CAIX-expressing human HT-29 colorectal cancer cells (DSMZ, RRID: CVCL_0320) were cultured in McCoys's 5A modified medium (Biochrom, #F1015) including 10% fetal calf serum (FCS), 2 mM L-glutamine, 100 U/ml penicillin and 100 μg/mL streptomycin. […] Cells were washed twice with ice-cold FACS buffer and analyzed in an Attune NxT flow cytometer (Thermo Fisher). Median fluorescence intensities (MFI) of the APC/Cy5-channel were calculated by Attune NxT software.
Starred links: 1 amine or outer side, 2 acyl side, 3 side chain; linkers in the order of their positions; H or OH if unused. Positions of bridges follow the written chain, without caps; N, C: chain ends. Non-standard residues stand in square brackets, D forms with d. Primed or numbered codes have the meaning given here. *: point of attachment. APAc″ = 2-(4-(amino)piperidin-1-yl)acetic acid, NC1CCN(CC(=O)*)CC1; DOTA = O=C(O)CN1CCN(CC(=O)O)CCN(CC(=O)*)CCN(CC(=O)O)CC1; Ttds(3) = NCCCOCCOCCOCCCNC(=O)CCC(=O)*; mXylylene = c1cc(C[*:1])cc(C[*:2])c1; Sar = CNCC(=O)O
Please provide measured pIC50 for the entries that follow.

Batch request: pIC50 for each of the following binders.
1. {DOTA-APAc″}-CE[dP]DWLTWSC-NH2 (linker 1-10 via mXylylene, also called DOTA-APAc-[Cys(3MeBn)-Glu-pro-Asp-Trp-Leu-Thr-Trp-Ser-Cys]-NH2) [3BP-3858]
2. {DOTA-APAc″}-VYCE[dP]DWLTWAC-NH2 (linker 3-12 via mXylylene, also called DOTA-APAc-Val-Tyr-[Cys(3MeBn)-Glu-pro-Asp-Trp-Leu-Thr-Trp-Ala-Cys]-NH2) [3BP-3432]
3. {DOTA-Ttds(3)}-VYCE[Sar]DWLTWQC-NH2 (linker 3-12 via mXylylene, also called DOTA-Ttds-Val-Tyr-[Cys(3MeBn)-Glu-Nmg-Asp-Trp-Leu-Thr-Trp-Gln-Cys]-NH2) [3BP-3271]

A)
1: > 8 pic50; 2: > 8 pic50; 3: > 8 pic50
